molecular target: Gag-Pol polyprotein (Human immunodeficiency virus type 1 group M subtype B (isolate HXB2)) (UniProt P04585); test: RNase H inhibition, HIV 1 Gag Pol polyprotein, FRET biochemical assay, screening (AID 372); conditions: HIV-1 RT RNase H, FRET RNA/DNA substrate fluorescence; at 10 µM; stronger effect = higher value
In all, about 100,000 compounds went through this assay and about 770 (0.77%) were called active. The sample holds actives, similar compounds and a random draw of the others, so the mix is not that of the screen.
assay_readout: inhibition (%)
One number for each entry, in %.

Before answering, review these 2 worked examples.
COc1ccccc1C(=S)N1CCOCC1 :: 70
CCOc1cc(C(=S)N2CCCCC2)cc(I)c1O :: 59

Please find the next compound below.
Entry under test: COc1ccc(OC)c(C(=S)N2CCOCC2)c1 . Its inhibition was 11

###

biological target: Gag-Pol polyprotein (Human immunodeficiency virus type 1 group M subtype B (isolate HXB2)); assay: RNase H inhibition, HIV 1 Gag Pol polyprotein, FRET biochemical assay, screening (AID 372); conditions: HIV-1 RT RNase H, FRET RNA/DNA substrate fluorescence; at 10 µM; stronger effect = higher value
The campaign covered roughly 100,000 compounds. About 770 (0.77%) were called active. Shown is part of a subset that was picked to be rich in actives.
assay_readout: inhibition (%)
One number for each entry, in %.

Before answering, review these 6 worked examples.
COc1cc(C=O)ccc1OCCOc1cccc(Oc2ccccc2)c1 :: 21
CCc1ccc2oc(-c3ccc(NC(=S)NC(=O)c4cccc(F)c4)cc3)nc2c1 :: 59
NC(=O)c1ccccc1NC(=O)c1cccc([N+](=O)[O-])c1 :: 7
Cc1ccc(-n2nc3cc(C)c(NC(=O)c4cccc([N+](=O)[O-])c4C)cc3n2)cc1 :: 51
O=C(COc1cccc(Cl)c1)N=Nc1c(O)[nH]c(=O)[nH]c1=O :: 10
CS(=O)(=O)N(Cc1ccc(Cl)cc1)c1ccc(C(=O)N2CCCC2)cc1 :: 57

Hi! Can you tell me inhibition for each of these molecules?
1. CCn1c2ccccc2c2ccc(-c3nn(-c4ccccc4)cc3C=O)cc21
2. CS(=O)(=O)N(Cc1ccc(C(=O)Nc2cccc(C(F)(F)F)c2)cc1)c1ccccc1
3. O=C(Nc1ccc(I)cc1)c1ccc([N+](=O)[O-])o1
4. Cc1ccc(C(=O)Oc2ccccc2C(=S)N2CCOCC2)cc1
5. Cc1cc2nn(-c3ccccc3)nc2cc1NC(=O)c1ccc(Cl)cc1Cl

1. 11
2. 58
3. 0
4. 0
5. 41

Hi! Can you tell me inhibition for each of these molecules?
1. CCSCCOC(=O)C1=C(C)NC2=C(C(=O)CC(c3cccs3)C2)C1c1ccc(C)s1 (stereo not given)
2. Cc1ccc(NCC(=O)N/N=C\c2c(Br)cc(Br)c(O)c2Br)cc1
3. CC/C(=C1\C(=O)N(c2nc3ccccc3s2)N=C1C(F)(F)F)N1CCCCC1

[11, 17, 5]

Hi! Can you tell me inhibition for each of these molecules?
1. COc1ccc(C(=O)NC(=S)Nc2ccc3oc(-c4cccc(F)c4)nc3c2)cc1Br
2. CCOc1ccc(NC(=O)CSc2nc3ccccc3s2)cc1
3. O=C1OC(c2ccccc2)=N/C1=C\c1ccc(F)c(Br)c1
4. COc1ccccc1CC(=O)Nc1cccc(C)c1

[56, 10, 16, 0]

Hi! Can you tell me inhibition for each of these molecules?
1. COc1ccc(-n2nc3cc(C)c(NC(=O)/C=C/c4ccccc4)cc3n2)cc1
2. COc1ccc(C(=O)NC(=S)Nc2ccc3oc(-c4cccc(F)c4)nc3c2)cc1[N+](=O)[O-]

1. 42
2. 41
